Reference for the values: ChEMBL document CHEMBL1135157

// pIC50 lookup, one value per entry
- ASSAY OVERVIEW: Inhibition of Very late antigen 4/vascular cell adhesion molecule 1 inhibition activity in an ELISA assay
Scale note: pIC50 = -log10(concentration in M).

Some compounds with known pIC50 results, for comparison:
COc1ccc(C2(C(=O)N[C@@H](Cc3ccc(NC(=O)c4ccnc5ccccc45)cc3)C(=O)O)CCCC2)cc1 | 8.85
CCCCC(C)(CC)C(=O)N[C@@H](Cc1ccc(NC(=O)c2ccnc3ccccc23)cc1)C(=O)O (some centres undefined) | 8.09
O=C(Nc1ccc(C[C@H](NC(=O)[C@H]2CCC(=O)N2Cc2ccccc2)C(=O)O)cc1)c1c(Cl)cccc1Cl | 9.43

Prompt line: Input N#CC1(C(=O)N[C@@H](Cc2ccc(NC(=O)c3ccnc4ccccc34)cc2)C(=O)O)CCCC1 , output reported pIC50.
Response line: 8.12
